system_under_test: hErbB3.mmh (soluble monomeric human ErbB3 extracellular domain with C-terminal myc-myc-hexahistidine tag) (human, UniProt P21860 20-642)
Sequence (P21860 other isoform, or with tags, fused parts or gaps): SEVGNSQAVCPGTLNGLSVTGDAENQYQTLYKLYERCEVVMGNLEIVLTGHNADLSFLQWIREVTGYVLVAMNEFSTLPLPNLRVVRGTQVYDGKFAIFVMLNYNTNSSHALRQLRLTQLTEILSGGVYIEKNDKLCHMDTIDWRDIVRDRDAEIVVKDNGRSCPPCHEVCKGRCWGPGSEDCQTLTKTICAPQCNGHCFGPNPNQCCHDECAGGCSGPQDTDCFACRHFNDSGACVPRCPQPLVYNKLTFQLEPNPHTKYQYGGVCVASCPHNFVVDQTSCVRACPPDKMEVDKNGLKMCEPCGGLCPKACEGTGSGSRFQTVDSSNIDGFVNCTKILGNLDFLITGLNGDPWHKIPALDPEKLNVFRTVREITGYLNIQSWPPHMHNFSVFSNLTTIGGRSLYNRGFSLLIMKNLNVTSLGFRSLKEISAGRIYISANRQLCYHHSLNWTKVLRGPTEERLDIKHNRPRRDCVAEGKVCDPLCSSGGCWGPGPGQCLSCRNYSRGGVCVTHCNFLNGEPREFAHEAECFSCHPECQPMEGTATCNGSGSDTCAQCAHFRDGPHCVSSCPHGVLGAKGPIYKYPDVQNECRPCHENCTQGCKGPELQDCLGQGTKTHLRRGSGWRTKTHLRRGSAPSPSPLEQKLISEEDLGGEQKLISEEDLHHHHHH
assay_notes: SPR (Biacore), 25 C, mAb capture format
result_type: T½
Mention the unit after the number when you answer.

>  <binder>
H4H2143P (antibody, V domains shown, Fully human, human IgG4 Fc (H4H prefix)) VH: EVQLVESGGGLVQPGRSLRLSCAASGFTFGDYAMHWVRQAPGKGLEWVSGINLNSGTIGYADSVKGRFTISRDNAKNSLYLQMNSLRAEDTAFYYCAKDIDGYYHYAMDVWGQGTTVTVSS VL: DVVMTQSPSFLSASVGDRVTITCWASQGISSYLAWYQQKPGKAPKLLIYDASTLESGVPSRFSGSGSGTEFTLTISNLQPEDFATYYCQQVNSYPLTFGGGTKVEIKR

>  <T½>
1.82 h

$$$$

Ask | Output measured T½ for this item: H1M1828N (antibody, V domains shown, Hybridoma chimeric antibody: human variable domains, mouse constant domains (H1M prefix, mouse Fc)) VH: EVQLVESGGGLVQPGRSLRLSCAASGFTFDDYAMYWVRQAPGKGLEWVSGISWNSGSIGYADSVKGRFTISRDNAKNSLYLQMDSLRAEDTALYYCARDMMEVDLYGMDVWGQGTTVTVSS VL: DIQMTQSPSSVSASVGDRVTITCRASQDISSWLAWYQQKPGTAPKFLIYETSSLQSGVPSRFSGSGSGTDFILTISSLQPEDFATYYCQQTDSFPHTFGQGTKLEIR
Reply | 0.733 h
